Below is a list of entries, each paired with its recorded Population Hoechst High Intensity Objects (%) value.
- System: Fibroblast
- assay-overview: Multiplex assay against human fibroblast
- Format: toxicity, cell-based
- cond: 48 h, 1 µM, compound concentration 1 uM, replicate 1
A number alone suffices; assume %.

Solved entries:
CCCCCCNC(=O)Nc1ccc(S(=O)(=O)Nc2ccc(CCNC[C@H](O)COc3ccc(O)cc3)cc2)cc1	3
CN1CCN2c3ccccc3Cc3ccccc3C2C1.Cl (stereo not drawn) [MIANSERIN HYDROCHLORIDE]	2
Nc1nc(-c2ccco2)c2cnn(Cc3ccccc3F)c2n1	3
Cl.Cl.OCCOCCN1CCN(C(c2ccccc2)c2ccc(Cl)cc2)CC1 (stereo not drawn) [HYDROXYZINE HYDROCHLORIDE]	4

Notebook: O=C(O)CCC/C=C\CC1C(O)CC(O)C1/C=C/C(O)COc1cccc(Cl)c1 (stereo not drawn) , Population Hoechst High Intensity Objects (%) read as 2

Kindly note the recorded Population Hoechst High Intensity Objects (%) for COc1cc(Nc2ncc3c(n2)-c2ccc(Cl)cc2C(c2c(F)cccc2OC)=NC3)ccc1C(=O)O , which is 5

The molecule identified as CCC(=O)OCC(=O)[C@@]1(OC(=O)CC)[C@@H](C)C[C@H]2[C@@H]3CCC4=CC(=O)C=C[C@]4(C)[C@@]3(Cl)[C@@H](O)C[C@@]21C [BECLOMETHASONE DIPROPIONATE] registered its Population Hoechst High Intensity Objects (%) at 3

Population Hoechst High Intensity Objects (%) measured on O=c1ccc2ccc(OCCCCN3CCN(c4cccc5sccc45)CC3)cc2[nH]1 = 4

----------
- Tested on: HEK-293T
- assay-overview: Multiplex assay against HEK293T
- Format: toxicity, cell-based
- cond: human, 12 h, 10 µM, compound concentration 10 uM, replicate 2
The reader will find reported Population Mitochondria Different-Phenotype (%) values listed item by item below.
Number in %, nothing else.

// sample CCc1nn2c(C)cc(C)nc2c1Cc1ccc(-c2nnc(C3CCNCC3)o2)cc1 , its Population Mitochondria Different-Phenotype (%) was 86

Record Cc1cc(O)c(-c2ccc([C@@H](C)CN(C)C)cc2)c2c1[nH]c(=O)c1sccc12 . Reported Population Mitochondria Different-Phenotype (%): 94

----------
// Population Tubulin-Different-Phenotype (%) lookup, one value per entry
- System: HEK-293T
- assay-overview: Multiplex assay against HEK293T
- Type: toxicity, cell-based
- cond: human, 48 h, 10 µM, compound concentration 10 uM, replicate 2
Give just the number in %; leave the unit off.

Cc1sc2c(c1C)C(c1ccc(Cl)cc1)=N[C@H](CC(=O)OC(C)(C)C)c1nnc(C)n1-2	28

Form: compound = CN1CCC(C(=O)c2cccc(NC(=O)c3c(F)cc(F)cc3F)n2)CC1 ; Population Tubulin-Different-Phenotype (%) = 25

The measured Population Tubulin-Different-Phenotype (%) associated with Nc1nc(-c2ccco2)c2cnn(Cc3ccccc3F)c2n1 reads 15

Form: compound = Cc1cc(O)c(-c2ccc([C@@H](C)CN(C)C)cc2)c2c1[nH]c(=O)c1sccc12 ; Population Tubulin-Different-Phenotype (%) = 73

The recorded Population Tubulin-Different-Phenotype (%) for entry CC(C)C[C@H](CO)Nc1nc(S[C@@H](C)c2ccccc2)nc2nc(N)sc12 equals 21

GET /value?item= O=c1ccc2ccc(OCCCCN3CCN(c4cccc5sccc45)CC3)cc2[nH]1 &field=Population Tubulin-Different-Phenotype (%) returns 82
